study target: BaF3 TELJAK3 cells (Homo sapiens)
Construct: fused on or other part: TEL (ETV6) N-terminal part, coding nucleotides 1-487, serves as the oligomerising partner; It is fused through a Sal I site to the JAK3 kinase domain and expressed from pTRE2 in BaF3 cells bearing pTET-off; P41212 (Transcription factor ETV6)
Sequence (P52333 1-1124): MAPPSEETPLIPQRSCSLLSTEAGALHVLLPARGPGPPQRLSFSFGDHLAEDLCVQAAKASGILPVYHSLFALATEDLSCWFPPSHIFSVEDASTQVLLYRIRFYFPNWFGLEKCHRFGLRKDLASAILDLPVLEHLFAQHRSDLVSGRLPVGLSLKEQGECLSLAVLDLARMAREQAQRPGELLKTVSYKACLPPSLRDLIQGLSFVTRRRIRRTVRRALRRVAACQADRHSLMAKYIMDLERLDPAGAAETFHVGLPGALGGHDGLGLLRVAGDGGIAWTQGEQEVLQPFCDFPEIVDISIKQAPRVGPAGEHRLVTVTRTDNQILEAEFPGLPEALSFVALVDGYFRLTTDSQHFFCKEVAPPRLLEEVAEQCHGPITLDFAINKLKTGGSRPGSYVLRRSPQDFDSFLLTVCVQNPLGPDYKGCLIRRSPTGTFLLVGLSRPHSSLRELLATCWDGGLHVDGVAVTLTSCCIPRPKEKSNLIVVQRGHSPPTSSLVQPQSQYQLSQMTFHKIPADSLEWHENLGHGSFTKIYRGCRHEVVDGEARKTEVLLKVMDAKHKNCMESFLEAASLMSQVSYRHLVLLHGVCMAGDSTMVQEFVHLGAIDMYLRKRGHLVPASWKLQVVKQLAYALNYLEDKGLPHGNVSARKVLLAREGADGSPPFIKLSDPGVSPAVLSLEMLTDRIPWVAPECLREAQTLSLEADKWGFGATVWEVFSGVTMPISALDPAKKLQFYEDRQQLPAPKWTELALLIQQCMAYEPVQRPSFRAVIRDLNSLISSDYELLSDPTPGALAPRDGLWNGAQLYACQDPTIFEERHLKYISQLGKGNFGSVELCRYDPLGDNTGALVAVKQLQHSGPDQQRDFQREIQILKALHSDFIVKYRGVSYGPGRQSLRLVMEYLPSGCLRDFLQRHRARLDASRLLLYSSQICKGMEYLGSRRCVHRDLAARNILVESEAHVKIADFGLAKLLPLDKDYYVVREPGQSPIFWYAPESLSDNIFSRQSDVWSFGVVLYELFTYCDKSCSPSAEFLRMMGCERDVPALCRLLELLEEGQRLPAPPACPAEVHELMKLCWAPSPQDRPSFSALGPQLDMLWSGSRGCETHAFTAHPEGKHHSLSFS
run description: Cellular screening, BaF3 TEL:JAK3 cells, Alamar Blue
Assay type: cell-based
study conditions: 40 hr, read-out: BafT_J3 IC50_nM
Give GI50 for every item shown.

{"molecule": "Cc1cnc(Nc2ccc(N3CCOCC3)cc2)nc1Sc1ccc(NC(=O)/C=C\\C(=O)O)cc1", "test result": "> 20 µM"}
{"molecule": "N#Cc1c(N)ncn1Cc1ccc(Sc2ccnc(Nc3ccc(N4CCOCC4)cc3)n2)cc1", "test result": "< 1 µM"}
{"molecule": "Cc1cnc(Nc2ccc(N3CCOCC3)cc2)nc1Sc1ccc(NC(=O)CO)cc1", "test result": "< 20 µM"}
{"molecule": "Nc1ccc(Sc2nc(Nc3ccc(N4CCOCC4)cc3)ncc2Cl)cc1", "test result": "> 20 µM"}
{"molecule": "C=CC(=O)Nc1ccc(Sc2ccnc(Nc3ccc(Cl)cc3)n2)cc1", "test result": "< 5 µM"}

Hey, can you go through the list below and give me GI50 for every item?
1. C=CC(=O)Nc1ccc(Sc2ccnc(Nc3ccccc3)n2)cc1
2. Nc1ccc(Sc2nc(Nc3cccc(N4CCOCC4)c3)ncc2I)cc1
3. Cc1cnc(Nc2ccc(N3CCOCC3)cc2)nc1Sc1ccc(NC2CCOC2=O)cc1 (stereo not drawn)
4. Cc1cc(N)ccc1Sc1nc(Nc2ccc(N3CCOCC3)cc2)ncc1C

1. < 20 µM
2. < 5 µM
3. > 20 µM
4. < 5 µM
